System: farnesyl pyrophosphate synthase in daffodil chromoplasts
test.details: inhibition of farnesyl pyrophosphate synthase in daffodil chromoplasts (14C-isopentenyl pyrophosphate incorporation)
Assay type: biochemical, Narcissus pseudonarcissus
condition.parameters: Table II; unit inferred, IC50 values in nM; read-out: IC50
// boundary case: IC50 equal to 200 nM maps to False; strictly smaller maps to True

Query block: Find out if reported IC50 for CC1CCCN(CC(P(=O)(O)O)P(=O)(O)O)C1C (stereo not shown) is less than 200 nM
Result block: True

Query block: Find out if reported IC50 for `CC1CCN(CC(P(=O)(O)O)P(=O)(O)O)CC1` is less than 200 nM
Result block: False

Query block: Find out if reported IC50 for `O=P(O)(O)C(CNC1Cc2ccccc2C1)P(=O)(O)O` is less than 200 nM
Result block: False

Query block: Find out if reported IC50 for `CC(C)CNCC(P(=O)(O)O)P(=O)(O)O` is less than 200 nM
Result block: True

Query block: Find out if reported IC50 for CC(NCC(P(=O)(O)O)P(=O)(O)O)c1ccccc1 (stereo not shown) [Compound 27] is less than 200 nM
Result block: False

Query block: Find out if reported IC50 for `C=CCN(CC=C)CC(P(=O)(O)O)P(=O)(O)O` is less than 200 nM
Result block: True

Query block: Find out if reported IC50 for CC1CCCN(CC(P(=O)(O)O)P(=O)(O)O)C1 (stereo not shown) is less than 200 nM
Result block: False

Query block: Find out if reported IC50 for `CCN(CC)CC(P(=O)(O)O)P(=O)(O)O` is less than 200 nM
Result block: False

Query block: Find out if reported IC50 for `CCCCNCC(P(=O)(O)O)P(=O)(O)O` is less than 200 nM
Result block: False

Query block: Find out if reported IC50 for CCC(C)NCC(P(=O)(O)O)P(=O)(O)O (stereo not shown) is less than 200 nM
Result block: True
